target: FGFR3 (Homo sapiens, UniProt P22607); assay: Affinity and Koff to FGFR3 measured by BIAcore; format: binding
Sequence (P22607 23-806): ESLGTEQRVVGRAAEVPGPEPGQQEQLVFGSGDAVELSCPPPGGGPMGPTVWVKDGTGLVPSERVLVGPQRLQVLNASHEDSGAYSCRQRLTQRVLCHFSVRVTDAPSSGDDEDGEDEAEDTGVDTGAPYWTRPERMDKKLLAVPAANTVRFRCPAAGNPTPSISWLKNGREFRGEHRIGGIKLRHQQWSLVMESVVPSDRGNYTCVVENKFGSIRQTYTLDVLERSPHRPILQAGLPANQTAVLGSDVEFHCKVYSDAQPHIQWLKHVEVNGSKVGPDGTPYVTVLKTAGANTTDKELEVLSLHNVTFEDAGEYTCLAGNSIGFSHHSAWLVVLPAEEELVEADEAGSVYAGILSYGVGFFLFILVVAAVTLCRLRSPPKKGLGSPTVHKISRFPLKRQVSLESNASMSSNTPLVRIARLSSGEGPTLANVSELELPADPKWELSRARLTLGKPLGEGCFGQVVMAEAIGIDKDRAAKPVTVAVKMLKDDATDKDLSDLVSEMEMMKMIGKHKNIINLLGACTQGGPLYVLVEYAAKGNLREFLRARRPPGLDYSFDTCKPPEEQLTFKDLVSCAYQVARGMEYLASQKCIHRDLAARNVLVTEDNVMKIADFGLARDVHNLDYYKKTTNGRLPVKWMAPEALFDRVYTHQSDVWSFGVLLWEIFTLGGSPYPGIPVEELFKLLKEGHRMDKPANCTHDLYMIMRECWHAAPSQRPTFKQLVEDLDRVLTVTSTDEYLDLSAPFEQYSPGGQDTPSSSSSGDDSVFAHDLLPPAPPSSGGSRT
readout-type: Kd (nM)
Numbers only, in nM.

// sample PRO-026: HuCAL anti-FGFR3 clone; VH-CDR3 SEQ ID NO:6, VL-CDR3 SEQ ID NO:15 (antibody, V domains shown) VH: QVQLVQSGAEVKKPGASVKVSCKASGYTFTSYYMHWVRQAPGQGLEWMGWINPNSGGTNYAQKFQGRVTMTRDTSISTAYMELSSLRSEDTAVYYCARGYWYAYFTYINYGYFDNWGQGTLVTVSS VL: DIALTQPASVSGSPGQSITISCTGTSSDVGGYNYVSWYQQHPGKAPKLMIYDVSNRPSGVSNRFSGSKSGNTASLTISGLQAEDEADYYCQSYDNNSDVVFGGGTKLTVLGQ , its Kd was 4
